All values here come from patent US20240208953A1.

Molecular target: NR2B (Rattus norvegicus (Rat), UniProt Q00960)
Sequence (Q00960 27-1482, other chains not shown): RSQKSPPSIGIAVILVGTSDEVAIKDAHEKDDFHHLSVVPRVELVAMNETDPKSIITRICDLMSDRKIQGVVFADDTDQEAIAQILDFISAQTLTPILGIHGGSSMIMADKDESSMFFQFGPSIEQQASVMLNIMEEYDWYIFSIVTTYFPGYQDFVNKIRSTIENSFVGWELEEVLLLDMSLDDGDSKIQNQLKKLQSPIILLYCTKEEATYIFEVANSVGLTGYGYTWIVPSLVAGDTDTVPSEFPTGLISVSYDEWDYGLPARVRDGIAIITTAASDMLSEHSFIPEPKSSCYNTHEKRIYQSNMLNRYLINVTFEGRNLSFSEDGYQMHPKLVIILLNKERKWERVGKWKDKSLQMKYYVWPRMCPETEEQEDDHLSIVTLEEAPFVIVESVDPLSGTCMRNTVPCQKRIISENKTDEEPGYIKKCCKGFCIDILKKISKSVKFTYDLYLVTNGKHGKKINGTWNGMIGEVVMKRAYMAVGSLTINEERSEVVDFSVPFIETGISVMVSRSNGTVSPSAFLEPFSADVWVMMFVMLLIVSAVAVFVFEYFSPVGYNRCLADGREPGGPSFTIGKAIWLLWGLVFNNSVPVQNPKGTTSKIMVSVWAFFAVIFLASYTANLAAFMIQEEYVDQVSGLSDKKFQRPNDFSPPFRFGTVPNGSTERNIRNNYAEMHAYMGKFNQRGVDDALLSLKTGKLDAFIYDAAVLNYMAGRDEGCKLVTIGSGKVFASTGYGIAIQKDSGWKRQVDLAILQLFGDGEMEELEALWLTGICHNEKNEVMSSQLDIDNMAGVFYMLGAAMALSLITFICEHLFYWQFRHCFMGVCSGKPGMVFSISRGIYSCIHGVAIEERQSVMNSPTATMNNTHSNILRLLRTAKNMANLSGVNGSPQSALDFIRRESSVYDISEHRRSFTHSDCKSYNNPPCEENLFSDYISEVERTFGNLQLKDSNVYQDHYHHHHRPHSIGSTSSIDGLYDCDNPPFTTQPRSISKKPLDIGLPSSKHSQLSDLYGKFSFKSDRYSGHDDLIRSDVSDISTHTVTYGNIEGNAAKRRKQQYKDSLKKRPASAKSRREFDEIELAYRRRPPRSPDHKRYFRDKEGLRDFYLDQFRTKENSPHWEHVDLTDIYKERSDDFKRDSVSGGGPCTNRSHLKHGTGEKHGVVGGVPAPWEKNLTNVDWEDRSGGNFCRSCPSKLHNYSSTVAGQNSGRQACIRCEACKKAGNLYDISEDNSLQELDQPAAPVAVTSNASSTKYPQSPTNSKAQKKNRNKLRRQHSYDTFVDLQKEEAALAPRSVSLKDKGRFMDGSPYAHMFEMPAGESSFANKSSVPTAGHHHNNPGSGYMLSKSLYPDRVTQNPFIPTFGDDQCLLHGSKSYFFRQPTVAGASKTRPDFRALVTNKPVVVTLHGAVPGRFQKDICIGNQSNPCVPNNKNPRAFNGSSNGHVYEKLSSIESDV
Assay: NR2B rat cortical neuron calcium influx assay
Conditions: rat cortical neurons, glutamate and glycine stimulated calcium influx
pIC50: −log10 of the molar value.
Assay readout: pIC50

{"Molecule": "O=C1CCCc2cc([C@H](O)CN3C[C@H]4C[C@H](Oc5ccccc5)C[C@@]4(O)C3)cc(F)c2N1 (single isomer, unassigned) [Example 30B]", "Assay readout": "pIC50", "Prefix operator": "=", "Experimental result": 7.77}
{"Molecule": "O=C1CCc2cc([C@@H](O)CN3C[C@H]4C[C@H](Oc5ccc(F)cc5F)C[C@@]4(O)C3)ccc2N1 (single isomer, unassigned) [Example 25A]", "Assay readout": "pIC50", "Prefix operator": "<", "Experimental result": 5.96}
{"Molecule": "O=C1Nc2ccc([C@H](O)CN3C[C@H]4C[C@H](Oc5ccccc5F)C[C@@]4(O)C3)cc2CO1 (single isomer, unassigned) [Example 41B]", "Assay readout": "pIC50", "Prefix operator": "=", "Experimental result": 9.64}
{"Molecule": "O=C1CCc2cc([C@@H](O)CN3C[C@@H]4C[C@@H](Oc5cccc(F)c5)C[C@]4(O)C3)ccc2N1 (single isomer, unassigned) [Example 23C]", "Assay readout": "pIC50", "Prefix operator": "=", "Experimental result": 8.85}
{"Molecule": "O=C1Nc2ccc([C@H](O)CN3C[C@H]4C[C@H](Oc5ccccc5F)C[C@@]4(O)C3)cc2CS1 (single isomer, unassigned) [Example 15B]", "Assay readout": "pIC50", "Prefix operator": "=", "Experimental result": 11.72}
{"Molecule": "O=C1CCc2cc([C@H](O)CN3C[C@@H]4C[C@@H](Oc5ccc(F)cc5)C[C@]4(O)C3)ccc2N1 (single isomer, unassigned) [Example 22D]", "Assay readout": "pIC50", "Prefix operator": "=", "Experimental result": 8.80}

###

Target: NR2B (Rattus norvegicus (Rat))
Assay: NR2B rat cortical neuron calcium influx assay
Conditions: rat cortical neurons, glutamate and glycine stimulated calcium influx
pIC50: −log10 of the molar value.
Binary call on pIC50: Y from 8 upward, N beneath that.

{"Compound": "O=c1ccc2cc([C@@H](O)CN3C[C@H]4C[C@H](Oc5ccccc5)C[C@@]4(O)C3)ccc2[nH]1 (single isomer, unassigned)", "Target desc": "NR2B (Rattus norvegicus (Rat))", "Group": "Y"}
{"Compound": "O=C1Cc2cc([C@H](O)CN3C[C@H]4C[C@H](Oc5ccccc5)[C@H](O)[C@@]4(O)C3)ccc2N1", "Target desc": "NR2B (Rattus norvegicus (Rat))", "Group": "N"}
{"Compound": "O=C1Cc2cc([C@H](O)CN3C[C@H]4C[C@H](Oc5ccccc5)C[C@@]4(O)C3)ccc2N1", "Target desc": "NR2B (Rattus norvegicus (Rat))", "Group": "N"}
{"Compound": "O=C1COc2cc([C@H](O)CN3C[C@H]4C[C@H](Oc5ccccc5)C[C@@]4(O)C3)cc(F)c2N1 (single isomer, unassigned) [Example 13B]", "Target desc": "NR2B (Rattus norvegicus (Rat))", "Group": "N"}

###

Molecular target: NR2B (Rattus norvegicus (Rat))
Assay: NR2B rat cortical neuron calcium influx assay
Conditions: rat cortical neurons, glutamate and glycine stimulated calcium influx
pIC50: −log10 of the molar value.
Dear colleague, classification is by pIC50, with ranges listed here: label 0 = under 7, label 1 = from 7 up to 9, label 2 = 9 and over

{"Compound": "O=C1Nc2ccc([C@@H](O)CN3C[C@H]4C[C@H](Oc5ccccc5)C[C@@]4(O)C3)cc2CS1 (single isomer, unassigned) [Example 14A]", "Target desc": "NR2B (Rattus norvegicus (Rat))", "Group": "label 2"}
{"Compound": "O=c1[nH]c2c(F)cc([C@H](O)CN3C[C@H]4C[C@H](Oc5ccccc5)C[C@@]4(O)C3)cc2cc1F (single isomer, unassigned) [Example 20B]", "Target desc": "NR2B (Rattus norvegicus (Rat))", "Group": "label 2"}
{"Compound": "O=C1CCc2cc([C@H](O)CN3C[C@H]4C[C@H](Oc5c(F)cccc5F)C[C@@]4(O)C3)ccc2N1 (single isomer, unassigned) [Example 27B]", "Target desc": "NR2B (Rattus norvegicus (Rat))", "Group": "label 0"}
{"Compound": "O=c1[nH]c2ccc([C@@H](O)CN3C[C@H]4C[C@H](Oc5ccccc5F)C[C@@]4(O)C3)cc2s1 (single isomer, unassigned) [Example 18A]", "Target desc": "NR2B (Rattus norvegicus (Rat))", "Group": "label 2"}
{"Compound": "O=C1Nc2c(F)cc([C@@H](O)CN3C[C@H]4C[C@H](Oc5ccccc5)C[C@@]4(O)C3)cc2C[C@@H]1F [Example 19]", "Target desc": "NR2B (Rattus norvegicus (Rat))", "Group": "label 1"}
{"Compound": "O=C1Nc2c(F)cc([C@@H](O)CN3C[C@H]4C[C@H](Oc5ccccc5)C[C@@]4(O)C3)cc2CS1 (single isomer, unassigned) [Example 16A]", "Target desc": "NR2B (Rattus norvegicus (Rat))", "Group": "label 2"}
{"Compound": "O=c1[nH]c2ccc([C@@H](O)CN3C[C@H]4C[C@H](Oc5ccccc5)C[C@@]4(O)C3)cc2o1 (single isomer, unassigned) [Example 39A]", "Target desc": "NR2B (Rattus norvegicus (Rat))", "Group": "label 1"}
{"Compound": "O=C1CCc2cc([C@H](O)CN3C[C@H]4C[C@H](Oc5cccc(F)c5F)C[C@@]4(O)C3)ccc2N1 (single isomer, unassigned) [Example 24B]", "Target desc": "NR2B (Rattus norvegicus (Rat))", "Group": "label 1"}
{"Compound": "O=C1CCc2cc([C@H](O)CN3C[C@@H]4C[C@@H](Oc5cc(F)ccc5F)C[C@]4(O)C3)ccc2N1 (single isomer, unassigned) [Example 26D]", "Target desc": "NR2B (Rattus norvegicus (Rat))", "Group": "label 1"}
{"Compound": "O=C1CCc2cc([C@@H](O)CN3C[C@H]4C[C@H](Oc5c(F)cccc5F)C[C@@]4(O)C3)ccc2N1 (single isomer, unassigned) [Example 27A]", "Target desc": "NR2B (Rattus norvegicus (Rat))", "Group": "label 0"}
{"Compound": "O=C1Nc2c(cc([C@@H](O)CN3C[C@H]4C[C@H](Oc5ccccc5)C[C@@]4(O)C3)c(F)c2F)CO1 (single isomer, unassigned) [Example 38A]", "Target desc": "NR2B (Rattus norvegicus (Rat))", "Group": "label 1"}
{"Compound": "O=C1CCCc2cc([C@@H](O)CN3C[C@H]4C[C@H](Oc5ccccc5)C[C@@]4(O)C3)cc(F)c2N1 (single isomer, unassigned) [Example 30A]", "Target desc": "NR2B (Rattus norvegicus (Rat))", "Group": "label 0"}
{"Compound": "O=C1Cc2cc([C@H](O)CN3C[C@@H]4C[C@@H](Oc5ccccc5)[C@@H](O)[C@]4(O)C3)ccc2N1 [Example 3B]", "Target desc": "NR2B (Rattus norvegicus (Rat))", "Group": "label 0"}
{"Compound": "O=C1CCc2cc([C@@H](O)CN3C[C@H]4C[C@H](Oc5cccc(F)c5)C[C@@]4(O)C3)ccc2N1 (single isomer, unassigned) [Example 23A]", "Target desc": "NR2B (Rattus norvegicus (Rat))", "Group": "label 1"}
{"Compound": "O=C1COCc2cc([C@H](O)CN3C[C@H]4C[C@H](Oc5ccccc5)C[C@@]4(O)C3)cc(F)c2N1 (single isomer, unassigned) [Example 32B]", "Target desc": "NR2B (Rattus norvegicus (Rat))", "Group": "label 0"}
{"Compound": "O=C1Cc2cc([C@@H](O)CN3C[C@@H]4C[C@@H](Oc5ccccc5)[C@@H](O)[C@]4(O)C3)ccc2N1 [Example 3A]", "Target desc": "NR2B (Rattus norvegicus (Rat))", "Group": "label 0"}
